All figures here come from paper PMC6321439.

Listed compounds paired with reported IC50
System: Trypanosoma brucei brucei (bloodstream forms)
Assay: Antitrypanosomal activity in vitro
Format: cell-based
Settings: Trypanosoma brucei, Tbb bloodstream forms, strain 427; read-out: Antiparasitic activity IC50 ± SD Tbb (µM for pure compound)
MEASURED PARAMETER: IC50 (µM)

* Cc1ccc(C(=O)Nc2ccc(S(=O)(=O)O)c3cc(S(=O)(=O)O)cc(S(=O)(=O)O)c23)cc1NC(=O)c1cccc(NC(=O)Nc2cccc(C(=O)Nc3cc(C(=O)Nc4ccc(S(=O)(=O)O)c5cc(S(=O)(=O)O)cc(S(=O)(=O)O)c45)ccc3C)c2)c1 [suramine, reference compound] | 0.022
* C=C[C@@H]1C#CC#CC/C=C\CCCCCCCC(=O)O1 | 2.2

----------
Test: Cytotoxicity / anticancer activity on J774 cells
Assay type: cell-based
Details: mouse, J774 cancerous macrophage-like murine cells, mean ± SD from at least six values, read-out: Cytotoxicity IC50 ± SD J774 (µM for pure compound)
MEASURED PARAMETER: IC50 (µM)

• CC[C@@]1(O)C(=O)OCc2c1cc1n(c2=O)Cc2cc3ccccc3nc2-1 [camptothecin, reference compound] = 0.021
• C=C[C@@H]1C#CC#CC/C=C\CCCCCCCC(=O)O1 = 17.9
